# method: Protection index, ratio of TD50 for neurotoxicity in ip dosed mouse to ED50 for anticonvulsant activity in ip dosed mouse
# Assay type: toxicity, organism-based
# studyConditions: in vivo, read-out: Ratio TD50/ED50

| compound | selectivity ratio |
| --- | --- |
| CCCOc1ccc(-c2csc3nncn23)cc1 | 1.9 |
| O=c1[nH]nc2n1-c1ccc(OCc3ccc(F)cc3)cc1OCC2 | 12.6 |
| O=c1[nH]nc2n1-c1ccc(OCc3ccc(F)cc3)cc1SC2 | 15.4 |
| Fc1ccc(-n2c(-c3cccc(Cl)c3)n[nH]c2=S)cc1 | 3.9 |
| NC(=O)N1c2ccccc2C=Cc2ccccc21 [CARBAMAZEPINE] | 6.4 |
| Fc1ccc(-c2csc3nncn23)cc1 | 1.7 |

* * *

# System: MCF7
# method: Anticancer activity against human MCF7 cells assessed as cell growth inhibition incubated for 24 hrs by MTT assay
# Format: functional, cell-based
# studyConditions: MCF7, 24 h
pIC50: −log10 of the molar value.
readoutLabel: pIC50

| molecule | readoutLabel | quantitativeResult |
| --- | --- | --- |
| CC1CNCC(C)N1c1ccc(Nc2nccc(N3CCn4c(nnc4-c4ccc(F)c(Cl)c4)C3)n2)cc1 (stereo unspecified) | pIC50 | 5.43 |

* * *

# Test system: Plasmodium falciparum
# method: Antimalarial activity against Chloroquine resistant Plasmodium falciparum W2
# Format: functional, organism-based
In this section, each of the molecules is paired with its reported IC50.

| inputSmiles | targetUnderTest | IC50, nM |
| --- | --- | --- |
| Cc1cc(Nc2ccc(C(F)(F)F)cc2)n2nc(C(F)(F)F)nc2n1 | Plasmodium falciparum | 23 |
| Cc1cc(Nc2ccc(Cl)c(Cl)c2)n2nc(C(F)(F)F)nc2n1 | Plasmodium falciparum | 23 |
| COc1ccc(Nc2cc(C)nc3nc(C(F)(F)F)nn23)cc1 | Plasmodium falciparum | 23 |

* * *

# Test system: A549
# method: Anticancer activity against human A549 cells assessed as cell growth inhibition incubated for 48 hrs by CCK8 assay
# Assay type: functional, cell-based
# studyConditions: A549, 48 h

| inputSmiles | IC50 (nM) |
| --- | --- |
| CCCCSSc1nnc(-c2ccccc2)n1N | 2790 |

* * *

# targetUnderTest: Tubulin
# method: Inhibition of tubulin (unknown origin)
pIC50: −log10 of the molar value.
readoutLabel: pIC50

| inputSmiles | targetUnderTest | readoutLabel | quantitativeResult |
| --- | --- | --- | --- |
| COc1ccc(C(=O)n2nc(-c3cccnc3)nc2N)cc1 | Tubulin | pIC50 | 6.02 |
| COc1ccc(C(=O)n2nc(-c3ccncc3)nc2N)cc1 | Tubulin | pIC50 | 6.06 |

* * *

In this section, each of the molecules is paired with its reported IC50.
# method: Inhibition of Mycobacterium tuberculosis shikimate dehydrogenase

| inputSmiles | IC50 |
| --- | --- |
| Brc1ccc(OCc2nn3c(-c4ccc(Br)cc4)nnc3s2)cc1 | 14.42 µg/mL |
| O=[N+]([O-])c1ccc(C2=Nn3c(nnc3-c3ccnc(F)c3)CC2)cc1 | 73.57 µg/mL |
| Clc1ccc(-c2nnc3sc(COc4ccc(Br)cc4)nn23)cc1 | 6.82 µg/mL |
| O=[N+]([O-])c1ccc(C2=Nn3c(nnc3-c3ccc(Br)cc3)CC2)cc1 | 86.39 µg/mL |
